Method description: Pharmacokinetics test (hepatic microsome stability test)
Test parameters: human hepatic microsome 1 mg/mL, 37° C., 60 min, 1 μmol/L
Experimental readout: Remaining rate (%)

N#Cc1ccc(CCCC(=O)O)c(NC(=O)[C@@H]2C[C@]23CCOc2ccc(C(=O)NC4CC4)cc23)c1 | 94
CNC(=O)c1ccc2c(c1)[C@]1(CO2)C[C@H]1C(=O)Nc1cc(C#N)ccc1CCCC(=O)O | 77
N#Cc1ccc(CCCC(=O)O)c(NC(=O)[C@@H]2C[C@]23CCOc2ccc(C(=O)Nc4ccccn4)cc23)c1 | 100
CN1CC[C@H](NC(=O)c2ccc3c(c2)[C@]2(CCO3)C[C@H]2C(=O)Nc2cc(C#N)ccc2CCCC(=O)O)C1 | 89
CNc1ccc(-c2ccc3c(c2)[C@]2(CCO3)C[C@H]2C(=O)Nc2cc(C#N)ccc2CCCC(=O)O)cn1 | 76
Cc1noc(-c2ccc3c(c2)[C@]2(CCO3)C[C@H]2C(=O)Nc2cc(C#N)ccc2CCCC(=O)O)n1 | 80
COc1ccc(-c2ccc3c(c2)[C@]2(CCO3)C[C@H]2C(=O)Nc2cc(C#N)ccc2CCCC(=O)O)cn1 | 95
N#Cc1ccc(CCCC(=O)O)c(NC(=O)[C@@H]2C[C@]23CCOc2ccc(C(=O)NC4CCOCC4)cc23)c1 | 100
COC[C@H](C)NC(=O)c1ccc2c(c1)[C@]1(CCO2)C[C@H]1C(=O)Nc1cc(C#N)ccc1CCCC(=O)O | 86
CC(C)(C)n1cc(NC(=O)c2ccc3c(c2)[C@]2(CCO3)C[C@H]2C(=O)Nc2cc(C#N)ccc2CCCC(=O)O)cn1 | 90
N#Cc1ccc(CCCC(=O)O)c(NC(=O)[C@@H]2C[C@]23CCOc2ccc(-c4ncco4)cc23)c1 | 87
Cn1cc(NC(=O)c2ccc3c(c2)[C@]2(CC3)C[C@H]2C(=O)Nc2cc(C#N)ccc2CCCC(=O)O)cn1 | 91
N#Cc1ccc(CCCC(=O)O)c(NC(=O)[C@@H]2C[C@]23CCOc2ccc(C(=O)Nc4cccnn4)cc23)c1 | 80
CC(C)NC(=O)c1ccc2c(c1)[C@]1(CCO2)C[C@H]1C(=O)Nc1cc(C#N)ccc1CCCC(=O)O | 100

* * *

Test system: rat EP4 receptor (Rattus norvegicus (Rat))
Sequence (P43114 whole entry): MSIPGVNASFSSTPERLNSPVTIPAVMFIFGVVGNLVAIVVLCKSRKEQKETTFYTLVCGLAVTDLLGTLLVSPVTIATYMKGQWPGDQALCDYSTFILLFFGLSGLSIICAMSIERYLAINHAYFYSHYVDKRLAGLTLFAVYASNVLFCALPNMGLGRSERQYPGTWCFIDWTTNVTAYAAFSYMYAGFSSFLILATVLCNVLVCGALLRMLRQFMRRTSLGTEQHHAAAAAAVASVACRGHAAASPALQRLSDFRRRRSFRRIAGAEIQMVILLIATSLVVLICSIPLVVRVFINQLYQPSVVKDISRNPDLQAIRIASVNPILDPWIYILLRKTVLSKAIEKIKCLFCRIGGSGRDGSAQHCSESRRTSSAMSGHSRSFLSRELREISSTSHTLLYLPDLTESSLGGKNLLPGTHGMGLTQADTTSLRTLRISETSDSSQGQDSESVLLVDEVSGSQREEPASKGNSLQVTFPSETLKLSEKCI
Method description: EP4 antagonistic activity measurement using prostanoid receptor subtype expressing cells (cAMP)
Test parameters: CHO cells expressing rat EP4 receptor; inhibition of cAMP production by PGE2 10 nM
pIC50: −log10 of the molar value.
Experimental readout: pIC50

Consider the reported pIC50 for these compounds:
CC(C)(C)NC(=O)c1ccc2c(c1)[C@]1(CCO2)C[C@H]1C(=O)Nc1cc(C#N)ccc1CCCC(=O)O | 8.46
N#Cc1ccc(CCCC(=O)O)c(NC(=O)[C@@H]2C[C@]23CCOc2ccc(C(=O)NC4CCOCC4)cc23)c1 | 8.14
N#Cc1ccc(CCCC(=O)O)c(NC(=O)[C@@H]2C[C@]23CCOc2ccc(C(=O)NC4CCCC4)cc23)c1 | 8.35
COCCNC(=O)c1ccc2c(c1)OCC[C@]21C[C@H]1C(=O)Nc1cc(C#N)ccc1CCCC(=O)O | 8.16

(1) N#Cc1ccc(CCCC(=O)O)c(NC(=O)[C@@H]2C[C@]23CCOc2ccc(-c4ccccc4)cc23)c1
(2) N#Cc1ccc(CCCC(=O)O)c(NC(=O)[C@@H]2C[C@]23CCOc2ccc(N4CCCC4=O)cc23)c1
(3) N#Cc1ccc(CCCC(=O)O)c(NC(=O)[C@@H]2C[C@]23CCOc2ccc(C(=O)Nc4ccon4)cc23)c1
QUERY: List the 3 entries from lowest pIC50 to highest pIC50 value. The labels, placed in the requested order, form the answer.
RESULT: 1, 2, 3
(1: 7.77, 2: 8.07, 3: 8.47)

* * *

Method description: Pharmacokinetics test (hepatic microsome stability test)
Test parameters: human hepatic microsome 1 mg/mL, 37° C., 60 min, 1 μmol/L
Experimental readout: Remaining rate (%)

N#Cc1ccc(CCCC(=O)O)c(NC(=O)[C@@H]2C[C@]23COc2ccc(-c4cccnc4)cc23)c1 [Example 36] | 93
COCCNC(=O)c1cc2c(cc1F)OCC[C@]21C[C@H]1C(=O)Nc1cc(C#N)ccc1CCCC(=O)O [Example 20-2] | 77
Cn1cc(-c2ccc3c(c2)[C@]2(CCO3)C[C@H]2C(=O)Nc2cc(C#N)ccc2CCCC(=O)O)nn1 [Example 10-4] | 73
CNC(=O)c1cc2c(cc1OC)OCC[C@]21C[C@H]1C(=O)Nc1cc(C#N)ccc1CCCC(=O)O [Example 33-1] | 98

* * *

Method description: Pharmacokinetics test (hepatic microsome stability test)
Test parameters: human hepatic microsome 1 mg/mL, 37° C., 60 min, 1 μmol/L
Experimental readout: Remaining rate (%)

COCCNC(=O)c1ccc2c(c1)OCC[C@]21C[C@H]1C(=O)Nc1cc(C#N)ccc1CCCC(=O)O | 100
N#Cc1ccc(CCCC(=O)O)c(NC(=O)[C@@H]2C[C@]23CCOc2ccc(-c4cnc5[nH]ccc5c4)cc23)c1 | 100
N#Cc1ccc(CCCC(=O)O)c(NC(=O)[C@@H]2C[C@]23CCOc2ccc(C(=O)NC4CCC4)cc23)c1 | 100
N#Cc1ccc(CCCC(=O)O)c(NC(=O)[C@@H]2C[C@]23CCOc2ccc(-c4ccccc4)cc23)c1 | 81
N#Cc1ccc(CCCC(=O)O)c(NC(=O)[C@@H]2C[C@]23CCOc2ccc(-c4ccc(F)nc4)cc23)c1 | 82
CCOCCNC(=O)c1ccc2c(c1)[C@]1(CCO2)C[C@H]1C(=O)Nc1cc(C#N)ccc1CCCC(=O)O | 100
CNC(=O)c1ccc2c(c1)[C@]1(CC2)C[C@H]1C(=O)Nc1cc(C#N)ccc1CCCC(=O)O | 90
N#Cc1ccc(CCCC(=O)O)c(NC(=O)[C@@H]2C[C@]23CCOc2ccc(C(=O)Nc4ccno4)cc23)c1 | 100
N#Cc1ccc(CCCC(=O)O)c(NC(=O)[C@@H]2C[C@]23CCOc2ccc(N4CCCC4=O)cc23)c1 | 89
Cc1nnc(-c2ccc3c(c2)[C@]2(CCO3)C[C@H]2C(=O)Nc2cc(C#N)ccc2CCCC(=O)O)o1 | 100
N#Cc1ccc(CCCC(=O)O)c(NC(=O)[C@@H]2C[C@]23CCOc2ccc(C(=O)NCC(F)F)cc23)c1 | 85
CCCNC(=O)c1ccc2c(c1)[C@]1(CCO2)C[C@H]1C(=O)Nc1cc(C#N)ccc1CCCC(=O)O | 100
COCCNC(=O)c1cc2c(cc1OC)OCC[C@]21C[C@H]1C(=O)Nc1cc(C#N)ccc1CCCC(=O)O | 100
Cn1nccc1NC(=O)c1ccc2c(c1)[C@]1(CCO2)C[C@H]1C(=O)Nc1cc(C#N)ccc1CCCC(=O)O | 100

* * *

Method description: Pharmacokinetics test (hepatic microsome stability test)
Test parameters: human hepatic microsome 1 mg/mL, 37° C., 60 min, 1 μmol/L
Experimental readout: Remaining rate (%)

COCCNC(=O)c1ccc2c(c1)[C@@]1(C[C@H]1C(=O)Nc1cc(C#N)ccc1CCCC(=O)O)CC2(C)C [Example 38-1] | 69
CC1(C)C[C@]2(C[C@H]2C(=O)Nc2cc(C#N)ccc2CCCC(=O)O)c2cc(-c3cccnc3)ccc21 [Example 39] | 78
CCNC(=O)c1ccc2c(c1)[C@]1(CCO2)C[C@H]1C(=O)Nc1cc(C#N)ccc1CCCC(=O)O [Example 2-46] | 90
N#Cc1ccc(CCCC(=O)O)c(NC(=O)[C@@H]2C[C@]23CCOc2ccc(-c4cccnc4)cc23)c1 [Example 7-3] | 72
CC(C)NC(=O)c1cc2c(cc1F)OCC[C@]21C[C@H]1C(=O)Nc1cc(C#N)ccc1CCCC(=O)O [Example 20-5] | 100
N#Cc1ccc(CCCC(=O)O)c(NC(=O)[C@@H]2C[C@]23CCOc2ccc(-n4cccn4)cc23)c1 [Example 7-4] | 71
COCCNC(=O)c1ccc2c(c1)[C@]1(CCO2)C[C@H]1C(=O)Nc1cc(C#N)ccc1CCCC(=O)O [Example 2-2] | 97
N#Cc1ccc(CCCC(=O)O)c(NC(=O)[C@@H]2C[C@]23CCOc2ccc(C(=O)Nc4ccon4)cc23)c1 [Example 2-37] | 97
Cn1ccc(NC(=O)c2ccc3c(c2)[C@]2(CCO3)C[C@H]2C(=O)Nc2cc(C#N)ccc2CCCC(=O)O)n1 [Example 2-9] | 92
CNC(=O)c1ccc2c(c1)[C@@]1(C[C@H]1C(=O)Nc1cc(C#N)ccc1CCCC(=O)O)CC2(C)C [Example 38-2] | 89
N#Cc1ccc(CCCC(=O)O)c(NC(=O)[C@@H]2C[C@]23CCOc2ccc(C(=O)Nc4ncccn4)cc23)c1 [Example 2-36] | 100
CNC(=O)c1cc2c(cc1F)OCC[C@]21C[C@H]1C(=O)Nc1cc(C#N)ccc1CCCC(=O)O [Example 20-1] | 88
CNC(=O)c1ccc2c(c1)OCC[C@]21C[C@H]1C(=O)Nc1cc(C#N)ccc1CCCC(=O)O [Example 28-1] | 91
COCCNC(=O)c1ccc2c(c1)[C@]1(CO2)C[C@H]1C(=O)Nc1cc(C#N)ccc1CCCC(=O)O [Example 37-2] | 87
